system: Plasmodium falciparum Sir2 (PF13_0152, Sir2A); experiment: pfSir2 binders on small-molecule microarrays, primary screen, biochemical, small-molecule microarray, 635 nm fluorescence (AID 1098); details: small-molecule microarray binding, fluorescence 635 nm; higher = more signal;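 note: score merges spot fluorescence intensity with its signal-to-noise ratio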
Quick rule for you: composite z-score at 1 or higher means fulfilled, lower means not fulfilled.

COMPOUND	LABEL CLASS
CC(C)C[C@@H]1NC(=O)[C@H](C(C)C)NC(=O)[C@@]23C(=O)N[C@@H](Cc4ccccc4)C2[C@H](C)[C@@]2(C)O[C@H]2C3/C=C/CC/C=C/CNC1=O (some centres undefined)	not fulfilled
COc1ccc(CCNC(=O)[C@@]2(Sc3ccc(C)cc3)CC(=O)N(C(C)C)[C@@H]2c2ccc(CO)cc2I)cc1	not fulfilled
CCc1cccc(NC(=O)O[C@H]2[C@H](OC(=O)Nc3ccccc3-c3ccccc3)[C@@H](OC(=O)Nc3ccccc3-c3ccccc3)[C@@H](OC)O[C@@H]2CO)c1	fulfilled
NC(=O)NCC#Cc1ccc2c(c1)[C@]1(C(=O)N2)[C@H](C(=O)Nc2nc3ccccc3s2)[C@H]2C(=O)O[C@H](c3ccccc3)[C@H](c3ccccc3)N2[C@@H]1c1ccccc1OCCO	fulfilled
CCOC(=O)C[C@H]1[C@H](OC(=O)c2ccc(C(=O)c3ccccc3)cc2)[C@@H](NC(=O)c2ccccc2)c2cc(OCCCO)ccc2N1C(=O)c1ccc2ccccc2n1	not fulfilled
C[C@@]1([C@@H](NC(=O)c2ccc(-c3ccccc3)cc2)c2ccc(Cl)cc2)C[C@H]1C1CCCCC1	not fulfilled
COc1cc2c(cc1OC)CN(C(=O)[C@H]1[C@@H]3C(=O)O[C@@H](c4ccccc4)[C@@H](c4ccccc4)N3[C@@H](c3ccc(O)cc3)[C@]13C(=O)Nc1ccc(C#CCCO)cc13)CC2	not fulfilled
CCCC[C@@H]1C[C@H]1[C@@H](NC(=O)C(C)(C)C)c1ccc(C(F)(F)F)cc1	not fulfilled

# input # bool: composite z-score of `CCC[C@@H]1C[C@@]1(CCC)[C@@H](NS(=O)(=O)c1cccc2cccnc12)c1ccc(Cl)cc1` >= 1
# output not fulfilled

# input # bool: composite z-score of `COC(=O)[C@@]1(Cc2ccc(OC)cc2)[C@H]2c3cc(C(=O)N4CCCC4)n(CCN4CNCC4=O)c3C[C@H]2CN1C(=O)c1ccccc1` >= 1
# output fulfilled

# input # bool: composite z-score of CN1C=C(C(=O)OCCS(C)(=O)=O)C(C(=O)OCCS(C)(=O)=O)=CC(c2ccc(CO)cc2)=CC1C1CC1 (centres undefined) >= 1
# output not fulfilled

# input # bool: composite z-score of `O=C(CS)NCCCCCCNC(=O)[C@@H]1C[C@@H]2C(=O)NCC(=O)N2[C@@H]1c1cccc(OCCO)c1` >= 1
# output fulfilled

# input # bool: composite z-score of `CC(C)C[C@@H]1NC(=O)[C@@H]2C[C@H](C(=O)NCc3ccc(F)cc3)[C@H](c3cccc(OCCO)c3)N2C1=O` >= 1
# output fulfilled

# input # bool: composite z-score of `CO[C@H]1O[C@H](CO)[C@@H](OC(=O)Nc2ccccc2)[C@H](OC(=O)Nc2ccccc2)[C@@H]1OC(=O)Nc1ccccc1` >= 1
# output fulfilled

###

Below: a set of entries, each annotated with reported composite z-score.
assay: small-molecule microarray binders of probe aCHRDL2, primary screen, biochemical, biotinylated probe, 635/667 nm fluorescence (AID 1100); conditions: higher = more signal
Lab note: jot the number down without any unit.

# input Fill blank: measured composite z-score of the molecule `CC(C)N1C(=O)c2ccccc2[C@](C)(C(=O)NCCN2CCOCC2)[C@@H]1c1ccc(CO)cc1` is ____.
# output 0.987

# input Fill blank: measured composite z-score of the molecule `C=CCOC(=O)[C@H]1[C@@H]2C(=O)O[C@@H](c3ccccc3)[C@@H](c3ccccc3)N2[C@@H](c2ccc(OCCOC(=O)[C@H]3C[C@H]4C(=O)N[C@@H](CCCCNC(C)=O)C(=O)N4[C@H]3c3ccc(O)cc3)cc2)[C@]12C(=O)Nc1ccc(I)cc12` is ____.
# output -0.717

# input Fill blank: measured composite z-score of the molecule CC1(C)[C@@H]2CC(C(O)C3C=CC4C(=O)N(Cc5ccccc5)C(=O)C4N3n3cnnc3)=C[C@H]1C2 (stereo partly drawn) is ____.
# output 0.355

# input Fill blank: measured composite z-score of the molecule `COc1cc2c(cc1OC)CN(C(=O)[C@@H]1[C@H]3C(=O)O[C@H](c4ccccc4)[C@H](c4ccccc4)N3[C@H](c3ccccc3OCCO)[C@@]13C(=O)Nc1ccc(C#CCCO)cc13)CC2` is ____.
# output 0.547

# input Fill blank: measured composite z-score of the molecule `CCOC(=O)[C@H]1C/C=C/C[C@H](C(=O)OCC)C(=O)O[C@H]2[C@@H](OC)O[C@H](CO)[C@@H](OC(=O)c3c(OC)cccc3OC)[C@@H]2OC1=O` is ____.
# output 0.152

###

assay: A549 cell viability effects, profiling panel, calcein-AM fluorescence, 48 h, basal (AID 1162); conditions: higher = more signal; note: test concentration not given here
MEASURED METRIC: z-score
Lab note: jot the number down without any unit.

COMPOUND	z-score
O=C1NC(=O)C2C1C=CC(C(O)c1cccs1)N2Nc1ccc(Cl)cc1Cl (stereo not drawn)	-0.599

# input Fill blank: measured z-score of the compound `O=C(NC1CC1)[C@@H]1c2ccccc2C(=O)N(Cc2ccccc2Cl)[C@H]1c1ccc(CO)cc1` is ____.
# output 3.23

# input Fill blank: measured z-score of the compound C=C(C)[C@@H]1CC=C(C(O)C2C=CC3C(=O)N(C)C(=O)C3N2Nc2ccccc2)CC1 (stereo partly drawn) is ____.
# output -0.889

# input Fill blank: measured z-score of the compound `COc1ccc(C#Cc2ccc3c(c2)[C@]2(C(=O)N3)[C@H](c3ccccc3OCCO)N3[C@H](c4ccccc4)[C@H](c4ccccc4)OC(=O)[C@H]3[C@@H]2C(=O)Nc2nc3ccccc3s2)cc1` is ____.
# output 0.855

# input Fill blank: measured z-score of the compound `C=C(C(=O)CC[C@@H](OC(=O)c1cccnc1)c1ccccc1OCCO)C(C)C` is ____.
# output -0.125

# input Fill blank: measured z-score of the compound `CCOC(=O)C[C@H]1[C@H](OC(=O)c2ccccc2-c2ccccc2)[C@@H](NC(=O)CC(C)C)c2cc(OCCCO)ccc2N1C(=O)Cc1ccc(OC)cc1` is ____.
# output 0.412

# input Fill blank: measured z-score of the compound `CC(C)C[C@@H]1NC(=O)[C@@H]2C[C@H](C(=O)O)[C@H](c3cccc(OCCO)c3)N2C1=O` is ____.
# output 0.196

# input Fill blank: measured z-score of the compound C=C(C)[C@@H]1CC=C(C(O)C2C=CC3C(=O)N(c4ccccc4)C(=O)C3N2Nc2ccccc2)CC1 (stereo partly drawn) is ____.
# output 1.62

# input Fill blank: measured z-score of the compound `COCCOC(=O)N1C(=O)[C@@]2(c3cc(C#Cc4ccc(OC)cc4)ccc31)[C@H](c1ccc(OCCO)cc1)N1[C@H](c3ccccc3)[C@H](c3ccccc3)OC(=O)[C@H]1[C@@H]2C(=O)N1CCN(c2ncccn2)CC1` is ____.
# output -0.76

# input Fill blank: measured z-score of the compound `O=C1O[C@H](c2ccccc2)[C@H](c2ccccc2)N2[C@H]1[C@@H](C(=O)N1CCCCCCC1)[C@]1(C(=O)Nc3ccc(C#CC4=CCCCC4)cc31)[C@H]2c1ccc(OCCO)cc1` is ____.
# output -0.733

###

Below: a set of entries, each annotated with reported z-score.
assay: S. cerevisiae growth modulation with rapamycin, primary screen, strain BY4716, OD600, 96 h (AID 1091); settings: higher = more signal, called active from +8 up or from −8 down; note: test concentration not given here
Lab note: jot the number down without any unit.

Would you please look over these solved cases?
MOLECULE	z-score
COCCOC(=O)N1C(=O)[C@@]2(c3cc(C#CCC(C(=O)OC)C(=O)OC)ccc31)[C@H](C(=O)Nc1nc3ccccc3s1)[C@H]1C(=O)O[C@H](c3ccccc3)[C@H](c3ccccc3)N1[C@@H]2c1ccccc1OCCO	3.23
CC(C)N1C(=O)C[C@@](C(=O)NCC(F)(F)F)(c2ccc([N+](=O)[O-])cc2)[C@H]1c1ccc(CO)cc1	-1.63
COC(=O)[C@@]1(Cc2ccc(OC)cc2)[C@@H]2C(=CC(=O)[C@H]2CC(=O)C(=O)N2CCCC2)CN1C(=O)c1ccccc1	0.176
COC(=O)c1c(CC[C@@H](CO)NC(=O)NCCn2cc(C3(O)CCCC3)nn2)oc(C(C)=O)c1C(=O)OC	-0.0147
CC(C)OC(=O)C=C1C[C@@H](c2ccccn2)O[C@@H](c2ccccn2)O1	-1.36
[N-]=[N+]=NCc1ccccc1[C@@H]1OC(c2ccc(OCCCO)cc2)=N[C@]1(Cc1ccccc1)C(N)=O	-0.784
COc1cc(NN2C(C(O)c3ccco3)C=CC3C(=O)N(c4ccccc4)C(=O)C32)cc(OC)c1OC (stereo not drawn)	-0.234

From here, focus on the item given below.
# input Fill blank: measured z-score of the molecule `CCOC(=O)C[C@H]1[C@H](OC(=O)c2ccccc2-c2ccccc2)[C@@H](NC(=O)CC(C)C)c2cc(OCCCO)ccc2N1C(=O)Cc1ccc(OC)cc1` is ____.
# output 0.146

Each recorded value in this set is attributed to PubChem BioAssay.
